# tgt: Genome polyprotein (Dengue virus type 2 (strain 16681-PDK53))
# procedure_details: flavivirus cap methylation enzyme inhibition – biochemical, confirmation dose response, primary screen (AID 588689)
# cond: Dengue-2 NS5 methyltransferase capping enzyme assay, at 25 µM, stronger effect = higher value
Screen size: about 340,000 compounds; about 1,000 (0.29%) were called active. These entries were drawn from the full list. Potency and affinity values are given separately.
Give measured inhibition for each item. Keep answers brief.
Only the number, expressed in %, is required.

Input: Which inhibition value is on record for CC(=O)Nc1ccc(NC(=O)c2nc(S(=O)(=O)Cc3ccccc3)ncc2Cl)cc1 ?
Output: -50.4

Input: Which inhibition value is on record for CSC1=C(C#N)C(=O)NC(c2ccc(Cl)cc2)S1 (stereo unspecified) ?
Output: -3.83

Input: Which inhibition value is on record for CC(=O)N(C1=C(N2CCOCC2)C(=O)c2ccccc2C1=O)c1ccc(C(=O)O)cc1 ?
Output: 24.1

Input: Which inhibition value is on record for Cc1ccc(NC(=O)c2nc(S(=O)(=O)Cc3ccccc3)ncc2Cl)cc1 ?
Output: -43.4

Input: Which inhibition value is on record for CSc1ncc(Cl)c(C(=O)Nc2nnc(SC)s2)n1 ?
Output: 5.42

Input: Which inhibition value is on record for Cc1nnc(NC(=O)c2nc(S(=O)(=O)Cc3ccccc3C)ncc2Cl)s1 ?
Output: 27.3

Input: Which inhibition value is on record for COc1ccc(-c2noc(-c3ccccc3C(=O)NCc3ccco3)n2)cc1OC ?
Output: -1.61

Input: Which inhibition value is on record for N#CC1=C(Nc2ccccc2Cl)SC(c2ccccc2O)NC1=O (stereo unspecified) ?
Output: -11.1

Input: Which inhibition value is on record for COc1ccccc1N(C(C)=O)c1nc(C)cc(C)c1C#N ?
Output: -9.48

Input: Which inhibition value is on record for CC(=O)N(c1ccccc1)C1CCCC1 ?
Output: -5.78

Input: Which inhibition value is on record for CC(=O)N(C1=C(N)C(=O)c2ccccc2C1=O)c1ccccc1 ?
Output: -4.08

----------
# tgt: Genome polyprotein (Dengue virus type 2 (strain 16681-PDK53))
# procedure_details: flavivirus cap methylation enzyme inhibition – biochemical, confirmation dose response, primary screen (AID 588689)
# cond: Dengue-2 NS5 methyltransferase capping enzyme assay, at 25 µM, stronger effect = higher value
Among all 340,000 compounds or so, about 1,000 (0.29%) were called active. Only a sample is shown. Measured potencies and affinities stand elsewhere.
Give measured inhibition for each item. Keep answers brief.
Only the number, expressed in %, is required.

Input: Which inhibition value is on record for CC(C)c1ccc(CCNC(=O)CCNS(=O)(=O)c2ccc(Br)cc2)cc1 ?
Output: 2.95

Input: Which inhibition value is on record for COc1ccc(C2=NS(=O)(=O)N(C)C(C(=O)NC3CCCCC3)=C2)cc1OC ?
Output: -5.5

Input: Which inhibition value is on record for COc1ccc2sc(N(CCCN(C)C)C(=O)c3ccc(C(=O)c4ccccc4)cc3)nc2c1 ?
Output: 0

Input: Which inhibition value is on record for O=C(COC(=O)c1cc(Cl)ccc1O)Nc1cc(C(F)(F)F)ccc1N1CCOCC1 ?
Output: -3.11

Input: Which inhibition value is on record for O=C(NN=C1CCN(Cc2ccccc2)CC1)c1ccccc1 ?
Output: -11

Input: Which inhibition value is on record for Cn1c(=N)c(S(=O)(=O)c2ccccc2)cc2c(=O)n3ccccc3nc21 ?
Output: -8.12

Input: Which inhibition value is on record for O=C1c2ccccc2C(O)N1c1ccc(Cl)cc1 (centres undefined) ?
Output: -2.08

Input: Which inhibition value is on record for Cc1ccc(Cn2ccc(NC(=O)c3cc(-c4ccc(Cl)cc4)on3)n2)cc1 ?
Output: -1.39

Input: Which inhibition value is on record for O=C(O)c1ccccc1SCc1csc(-c2ccccc2)n1 ?
Output: -4.89

Input: Which inhibition value is on record for COC(=O)C1OC2(OC1C(=O)OC)c1ccccc1-c1ccccc12 (centres undefined) ?
Output: -6.04

Input: Which inhibition value is on record for CCOc1ccc(-n2c(=S)sc3c(=O)n(-c4ccccc4)c(SCC(=O)O)nc32)cc1 ?
Output: -5.28

Input: Which inhibition value is on record for COc1cc(N)c(Cl)cc1C(=O)OCC(=O)NC1CCCC1 ?
Output: -6.23

Input: Which inhibition value is on record for Cc1ccccc1Cn1c(CN2CCN(C(=O)c3ccco3)CC2)nc2c1c(=O)n(C)c(=O)n2C ?
Output: -5.56

Input: Which inhibition value is on record for O=C(CCC(=O)Nc1cccc(Cl)c1)N/N=C/c1cc([N+](=O)[O-])ccc1O ?
Output: -2.94

Input: Which inhibition value is on record for CCOc1cc(/C=C2/C(=O)N(c3ccccc3)N=C2C)ccc1OC(=O)c1cccs1 ?
Output: 8.81

Input: Which inhibition value is on record for CC1=NN(c2ccccc2)C(=O)/C1=C/C=C/c1ccccc1 ?
Output: 0.72

Input: Which inhibition value is on record for COc1cccc(-c2c(-c3cc(OC)cc(OC)c3)n(C)c3ccc(-c4ccc(OC)nc4)cc23)c1 ?
Output: 2.45

Input: Which inhibition value is on record for CCOC(=O)c1cc(=O)nc(N)s1 ?
Output: -4.03

Input: Which inhibition value is on record for CCN(C1CCCCC1)S(=O)(=O)CCNC(=O)c1ccc2c(c1)OCO2 ?
Output: -2.2

Input: Which inhibition value is on record for O=C(COC(=O)c1ccc(Br)o1)NC1CCCc2ccccc21 (centres undefined) ?
Output: -3.71

Input: Which inhibition value is on record for Cc1ccc(S(=O)(=O)NN2C(=O)/C(=C/c3ccccn3)SC2=S)cc1 ?
Output: 14

Input: Which inhibition value is on record for Cc1nc2c([nH]1)C1(CCN(Cc3ccccc3)CC1)C(C#N)=C(N)O2 ?
Output: 12.1

Input: Which inhibition value is on record for O=S(=O)(c1ccccc1)N1CCC2(CC1)CO2 ?
Output: -6.64

Input: Which inhibition value is on record for O=C(NC(C(=O)c1ccccc1)N1CCOCC1)c1cccs1 (centres undefined) ?
Output: -6.21

Input: Which inhibition value is on record for COc1ccc(/C=C2/SC(=O)N(CCC(=O)Nc3ccc(S(=O)(=O)Nc4nccs4)cc3)C2=O)cc1 ?
Output: -5.09

Input: Which inhibition value is on record for O=S(=O)(c1cc(Cl)ccc1Cl)N1CC2CCCN2c2ccc(C(F)(F)F)cc21 (centres undefined) ?
Output: -10.5

Input: Which inhibition value is on record for C=CCc1cccc2cc(C(=O)N3CCN(C(=O)c4ccccc4)CC3)c(=O)oc12 ?
Output: -4.98

Input: Which inhibition value is on record for CC(C)c1cc(=O)oc2c3c4c(cc12)CCCN4CCC3 ?
Output: 0

Input: Which inhibition value is on record for O=C(CSc1nnc2scc(-c3ccccc3)n12)NCc1ccc2c(c1)OCO2 ?
Output: -2.59

Input: Which inhibition value is on record for CCO[C@H]1OC(C(=O)O)=C[C@@H](c2cn(C(C)=O)c3ccccc23)[C@@H]1CCCO ?
Output: -0.8

Input: Which inhibition value is on record for CCCCOc1ccc(C(=O)NCC(=O)NC2CC2)cc1 ?
Output: 1.44

Input: Which inhibition value is on record for Cc1ccc(S(=O)(=O)N2CCCCC2)cc1C(=O)NCc1ccc(S(N)(=O)=O)cc1 ?
Output: 4.65

Input: Which inhibition value is on record for O=C(O)c1ccccc1/C=N/NC(=O)C1CCCC1 ?
Output: -8.46

Input: Which inhibition value is on record for CC1=NN(c2ccccc2)C(=O)/C1=C\c1cc(C)n(-c2ccccc2)c1C ?
Output: -4.02

Input: Which inhibition value is on record for CCCCNC(=O)c1sc2ncnc(N3CCc4ccccc4C3)c2c1C ?
Output: -8.03

Input: Which inhibition value is on record for CC1=NN(c2ccccc2)C(=O)/C1=C/N(C)C ?
Output: 2.35

Input: Which inhibition value is on record for CC(C)CSC1=NSC2=NC(=O)/C(=C\c3cccs3)C(=N)N12 ?
Output: 24.3

Input: Which inhibition value is on record for O=[N+]([O-])c1ccc(N/N=C/c2cccc(O)c2O)c(S(=O)(=O)N2CCOCC2)c1 ?
Output: 6.18

Input: Which inhibition value is on record for O=C(NCCC1=CCCCC1)c1cnc2n(c1=O)CCS2 ?
Output: 3.21

Input: Which inhibition value is on record for COc1ccc(C(=O)NC2CCCCCCC2)cc1OC ?
Output: -1.55

Input: Which inhibition value is on record for Cc1csc2nc(=O)c3ccccc3n12 ?
Output: -0.7

Input: Which inhibition value is on record for O=C(/C=C/c1ccco1)Nc1ccc2c(c1)OCCO2 ?
Output: -4.48

Input: Which inhibition value is on record for COc1cc(Cl)cc(NC(=O)CCN2CCN(C)CC2)c1 ?
Output: -1.61

Input: Which inhibition value is on record for O=C(O)C1C2CCC(O2)C1C(=O)Nc1ccc(Br)cc1F (centres undefined) ?
Output: -6.36
